molecular target: human uPAR (uPAR-Fc) (Homo sapiens, UniProt Q03405); construct: comprising amino acids Leu23-Arg303 according to UniProt entry Q03405.1; purchased R&D Systems 10378-UK-100; assay: Surface plasmon resonance (SPR) assay, single cycle kinetics; type: binding; conditions: pKD category for uPAR SPR activity assay; uPAR-Fc on Protein A-Chip, single cycle kinetics, 25°C; read-out: pKD CAT (converted)
Sequence (Q03405 23-303): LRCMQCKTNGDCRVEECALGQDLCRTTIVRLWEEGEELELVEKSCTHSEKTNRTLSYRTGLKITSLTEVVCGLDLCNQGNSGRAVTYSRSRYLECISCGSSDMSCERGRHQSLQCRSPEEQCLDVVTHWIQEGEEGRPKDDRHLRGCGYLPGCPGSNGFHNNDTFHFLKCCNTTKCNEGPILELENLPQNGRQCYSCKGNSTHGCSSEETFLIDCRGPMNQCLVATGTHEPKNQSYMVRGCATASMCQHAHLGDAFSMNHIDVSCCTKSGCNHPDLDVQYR
Where a SMILES comes first, the peptide text is derived from it. Bridges are numbered along the chain shown (N, C = ends). [ ]: non-standard residue; d: D form. The star is where a group is joined. X4 = C[N+](C)(CCCC[C@H](NC(=O)CN1CCN(CC(=O)O)CCN(CC(=O)O)CCN(CC(=O)O)CC1)C(=O)*)CCCS(=O)(=O)[O-]; Pro(cis-4-F) = O=C(O)[C@@H]1C[C@H](F)CN1; Hyp = O=C(O)[C@@H]1C[C@@H](O)CN1; Butoxycarbonyl = CCCCOC(=O)*; Nva = CCC[C@H](N)C(=O)O

| compound | target_under_test | Kd |
| --- | --- | --- |
| CCCCOC(=O)N[C@H]1CSSC[C@@H](C(N)=O)NC(=O)[C@H](CCC)NC(=O)[C@H]([C@@H](C)CC)NC(=O)[C@@H]2C[C@@H](O)CN2C(=O)[C@@H]2C[C@H](F)CN2C(=O)[C@H](Cc2ccccc2)NC(=O)[C@H](Cc2ccc(O)cc2)NC(=O)[C@H](CCCCNC(=O)[C@H](CCCC[N+](C)(C)CCCS(=O)(=O)[O-])NC(=O)CN2CCN(CC(=O)O)CCN(CC(=O)O)CCN(CC(=O)O)CC2)NC(=O)[C@H]([C@@H](C)O)NC1=O [UPAR-422] (Butoxycarbonyl-CTK(X4)YF[Pro(cis-4-F)][Hyp]I[Nva]C-NH2; disulfide 1-10) | human uPAR (uPAR-Fc) (Homo sapiens, UniProt Q03405) | < 1.58 nM |

* * *

Target: human uPAR (uPAR-Fc) (Homo sapiens)
Construct: comprising amino acids Leu23-Arg303 according to UniProt entry Q03405.1; purchased R&D Systems 10378-UK-100
Test: Surface plasmon resonance (SPR) assay, single cycle kinetics
Assay type: binding
Details: pKD category for uPAR SPR activity assay; uPAR-Fc on Protein A-Chip, 25°C; read-out: pKD CAT (converted)
Protocol: Surface plasmon resonance (SPR) is an optical technique used to measure molecular interactions in real time. SPR occur when plane-polarized light hits a metal film under total internal reflection conditions. […] In an SPR experiment, one molecule (i.e. uPAR) is immobilized on a sensor chip and binding to a second molecule (i.e. test compounds) is measured under flow. […] This response is measured in resonance units (RU). […]
Where a SMILES comes first, the peptide text is derived from it. Bridges are numbered along the chain shown (N, C = ends). [ ]: non-standard residue; d: D form. The star is where a group is joined. Hyp = O=C(O)[C@@H]1C[C@@H](O)CN1; Pentanoyl(4-Me) = CC(C)CCC(=O)*; Cit = NC(=O)NCCC[C@H](N)C(=O)O; Aib = CC(C)(N)C(=O)O

| molecule | target_under_test | Kd |
| --- | --- | --- |
| CC[C@H](C)[C@@H]1NC(=O)[C@@H](C)NC(=O)[C@@H]2CCCN2C(=O)[C@H](Cc2ccccc2)NC(=O)[C@H](Cc2ccc(O)cc2)NC(=O)C(C)(C)NC(=O)[C@H](CCCNC(N)=O)NC(=O)[C@@H](NC(=O)CCC(C)C)CSSC[C@@H](C(N)=O)NC(=O)[C@H](CC(C)C)NC1=O [UPAR-269] ({Pentanoyl(4-Me)}-C[Cit][Aib]YFP[dA]ILC-NH2; disulfide 1-10) | human uPAR (uPAR-Fc) (Homo sapiens) | 1.58 to 10 nM |
| CC[C@H](C)[C@@H]1NC(=O)[C@@H]2C[C@@H](O)CN2C(=O)[C@@H]2CCCN2C(=O)[C@H](Cc2ccccc2)NC(=O)[C@H](Cc2ccc(O)cc2)NC(=O)[C@H](CCC(N)=O)NC(=O)[C@H](CCCNC(N)=O)NC(=O)[C@@H](NC(=O)CCC(C)C)CSSC[C@@H](C(N)=O)NC(=O)[C@H](CC(C)C)NC1=O [UPAR-174] ({Pentanoyl(4-Me)}-C[Cit]QYFP[Hyp]ILC-NH2; disulfide 1-10) | human uPAR (uPAR-Fc) (Homo sapiens) | < 1.58 nM |
